Entry source: ChEMBL document CHEMBL2401616

# Tested on: Aspergillus flavus
# run description: Antifungal activity against Aspergillus flavus NCIM 539 assessed as growth inhibition by agar dilution method
# Type: functional

molecule | tested system | MIC, µg/mL
Clc1ccc(COC(Cn2ccnc2)c2ccc(Cl)cc2Cl)c(Cl)c1 (stereo unspecified) | Aspergillus flavus | 12.5
CN1CCC(n2cc(CN3CCc4sccc4C3)nn2)CC1 | Aspergillus flavus | 40
CC(C)C(=O)N1CCC(n2cc(CN3CCc4sccc4C3)nn2)CC1 | Aspergillus flavus | 35
CCC(=O)N1CCC(n2cc(CN3CCc4sccc4C3)nn2)CC1 | Aspergillus flavus | 30
O=C(c1ccccc1)N1CCC(n2cc(CN3CCc4sccc4C3)nn2)CC1 | Aspergillus flavus | 65
c1cc2c(s1)CCN(Cc1cn(C3CCNCC3)nn1)C2 | Aspergillus flavus | 60
CS(=O)(=O)N1CCC(n2cc(CN3CCc4sccc4C3)nn2)CC1 | Aspergillus flavus | 40
O=C(c1ccc(Cl)cc1)N1CCC(n2cc(CN3CCc4sccc4C3)nn2)CC1 | Aspergillus flavus | 40
Cc1ccc(S(=O)(=O)N2CCC(n3cc(CN4CCc5sccc5C4)nn3)CC2)cc1 | Aspergillus flavus | 45
c1ccc(CN2CCC(n3cc(CN4CCc5sccc5C4)nn3)CC2)cc1 | Aspergillus flavus | 60
CCN1CCC(n2cc(CN3CCc4sccc4C3)nn2)CC1 | Aspergillus flavus | 35
